Method description: Toxicity liver stage against HepG2, at 10uM
Format: cell-based
Set-up: test concentration 10 uM, cell line HepG2-A16-CD81EGFP
Condition label: human, HepG2-A16-CD81EGFP cells; read-out: INHIBITION
Items are presented alongside their recorded cytotoxicity at 10 µM.
# unit: % | format: bare number

Use these answered entries as a reference point.
Tell me the measured cytotoxicity at 10 µM of COc1ccccc1[C@@H]1CN(Cc2ccc3nsnc3c2)C[C@H]1C(=O)O , please.
-4.18

Tell me the measured cytotoxicity at 10 µM of COCc1cc(NCc2cccnc2Oc2ccc(C)nc2)ncn1 , please.
8.12

Tell me the measured cytotoxicity at 10 µM of CC(C)(C)NC(=O)[C@@H]1CNC[C@]12Cc1ccccc1C(=O)N2 , please.
-0.42

Continuing:
Tell me the measured cytotoxicity at 10 µM of Cc1ccccc1C(=O)NCc1ccc(N2CCNC(=O)C2)c(F)c1 , please.
-13.8

Tell me the measured cytotoxicity at 10 µM of O=C(c1cc(-n2cnnn2)ccc1Cl)N1CCN(c2ccccc2)CC1 , please.
11.3

Tell me the measured cytotoxicity at 10 µM of CS(=O)(=O)NCCC1CCCCN1C(=O)NCc1ccccn1 (stereo unspecified) , please.
-0.871

Tell me the measured cytotoxicity at 10 µM of CCc1cc(N[C@@H](CC(C)C)C(N)=O)n2nc(C)c(C)c2n1 , please.
7.33

Tell me the measured cytotoxicity at 10 µM of Cc1cc(NC(=O)NCC(c2ccc(C)o2)N2CCOCC2)n(C)n1 (stereo unspecified) , please.
-32.5

Tell me the measured cytotoxicity at 10 µM of Cc1c(Br)cccc1C(=O)NCCC1CCCNC1 (stereo unspecified) , please.
-11.7

Tell me the measured cytotoxicity at 10 µM of OCCC1CCN(c2ccnc3ccsc23)C1 (stereo unspecified) , please.
2.35

Tell me the measured cytotoxicity at 10 µM of CCC(C)NC(=O)c1ccc(CNC(=O)CCC(C)C)cc1 (stereo unspecified) , please.
2.27

====

Items are presented alongside their recorded cytotoxicity at 10 µM.
Method description: Toxicity liver stage against HepG2, at 10uM
Format: cell-based
Set-up: test concentration 10 uM, cell line HepG2-A16-CD81EGFP
Condition label: human, HepG2-A16-CD81EGFP cells; read-out: INHIBITION
# unit: % | format: bare number

Use these answered entries as a reference point.
Tell me the measured cytotoxicity at 10 µM of O=C(c1cc(F)cc(F)c1)N1CCC(O)(C(F)(F)F)CC1 , please.
7.08

Tell me the measured cytotoxicity at 10 µM of CCC(Nc1ccc(CCN2CCOCC2)cc1)C(N)=O (centres undefined) , please.
4.42

Tell me the measured cytotoxicity at 10 µM of CCC1=N[C@@]2(CC[C@@H]3CN(CC(C)C)C[C@@H]32)C(=O)N1 , please.
4.32

Tell me the measured cytotoxicity at 10 µM of Cn1ccc(CN2CCCC23CCNCC3)n1 , please.
4.86

Tell me the measured cytotoxicity at 10 µM of CC(C)N(Cc1cccnc1)C(=O)CCSc1ccc(C#N)cc1 , please.
27.1

Continuing:
Tell me the measured cytotoxicity at 10 µM of CNC(=O)COc1ccc(CNc2c(Cl)cccc2C#N)cc1 , please.
-55.9

Tell me the measured cytotoxicity at 10 µM of COCc1ncn(Cc2nc(-c3ccc(OC)cc3F)oc2C)n1 , please.
-92.7

Tell me the measured cytotoxicity at 10 µM of CC(=O)NCCNC(=O)CNC1CCCN(c2ccc(C)nn2)C1 (centres undefined) , please.
3.47
